// data source = patent US9284321B2

Each item that follows carries a reported melting point.
The answer is to be given in °C; state only the numeric part.

Below: 4 compounds and their reported melting point.
COc1ccc(-c2cc(F)cc3c(C)c4n(c23)CCNC4=O)cn1 :: 226
Cc1c2n(c3c(-c4cncnc4)cc(Cl)cc13)CCNC2=O :: 306
CC1CCNC(=O)c2cc3cc(F)cc(-c4ccccc4)c3n21 (racemic) :: 232.5
COc1cc(-c2ccc(C(F)(F)F)cc2)c2c(c1)cc1n2CCNC1=O :: 276

Consider the additional compound presented here.
Query block: Please give the measured melting point for this compound: Cc1c2n(c3c(-c4ccc(S(C)(=O)=O)cc4)cc(F)cc13)CCNC2=O
Result block: 292

====

Each item that follows carries a reported EC (150% of control).
- Tested on: human embryonic stem cell derived neural stem cells (NSCs)
- assay text: Neural Stem Cell Proliferation Assay (neurogenesis assay, ATP levels by CellTiterGlo)
- Format: cell-based
- stated conditions: 96 h, compound concentration at which 150% activity of control (100%) is reached, NSC proliferation by ATP level after 4 days incubation, dose response 8 μM to 8 nM
- Experimental: Neurogenic properties of small molecules are determined based on the proliferation of human embryonic stem cell derived neural stem cells (NSCs) which were derived via a dual smad inhibition as previously described (Chambers, S. M., et al., Highly efficient neural conversion of human ES and iPS cells by dual inhibition of SMAD signaling, Nature biotechnology, 2009. 27(3): p. 275-80.) Compounds respond is measured by the increase in cells based on ATP levels […]
Write your answer as a measured quantity: the number, then the unit.

Below: 5 compounds and their reported EC (150% of control).
O=C1NCCCn2c1cc1cc(F)c(F)c(-c3ccc(Cl)cc3)c12 :: 0.08 µM
Cc1c2n(c3c(-c4ccc(Cl)cc4F)cc(C#N)cc13)CCCNC2=O :: 0.019 µM
Cc1ccc(-c2cc(Cl)cc3c(C)c4n(c23)CCNC4=O)cc1F :: 0.029 µM
O=C1NCCn2c1cc1cc(Cl)cc(-c3ccc(Cl)cc3)c12 :: 0.045 µM
C[C@@H]1CNC(=O)c2cc3cc(F)cc(-c4ccc(F)c(F)c4)c3n21 :: 0.22 µM

Query block: Please give the measured EC (150% of control) for this compound: Cc1c2n(c3c(-c4ccc(Cl)cc4F)cc(C#N)cc13)CCNC2=O
Result block: 0.008 µM

Query block: Please give the measured EC (150% of control) for this compound: Cc1c2n(c3c(-c4ccc5c(c4)OCO5)cc(Cl)cc13)CCNC2=O
Result block: 0.018 µM

Query block: Please give the measured EC (150% of control) for this compound: N#Cc1cc(-c2ccc(F)cc2)c2c(c1)cc1n2CCNC1=O
Result block: 0.012 µM

Query block: Please give the measured EC (150% of control) for this compound: COc1ccc(-c2cc(F)cc3cc4n(c23)[C@H](C)CNC4=O)cc1
Result block: 0.034 µM

====

readout: melting point (°C)
The answer is to be given in °C; state only the numeric part.

Query block: Please give the measured melting point for this compound: Cc1c2n(c3c(-c4ccc(N(C)C)cc4)cc(F)cc13)CCNC2=O
Result block: 256

Query block: Please give the measured melting point for this compound: Cc1c2n(c3c(-c4cccc(F)c4)cc(C#N)cc13)CCCNC2=O
Result block: 261

Query block: Please give the measured melting point for this compound: O=C1NCCCn2c1cc1cc(F)cc(-c3ccc(F)c(F)c3)c12
Result block: 230.5

Query block: Please give the measured melting point for this compound: Cc1c2n(c3c(-c4ccc(OC(F)(F)F)cc4)cc(C#N)cc13)CCNC2=O
Result block: 239

Query block: Please give the measured melting point for this compound: Cc1c2n(c3c(-c4cccnc4)cc(C#N)cc13)CCNC2=O
Result block: 273

Query block: Please give the measured melting point for this compound: N#Cc1cc(-c2ccc(F)c(F)c2F)c2c(c1)cc1n2CCCNC1=O
Result block: 187

Query block: Please give the measured melting point for this compound: N#Cc1cc(-c2cccnc2)c2c(c1)cc1n2CCNC1=O
Result block: 272.5

Query block: Please give the measured melting point for this compound: N#Cc1cc(-c2cc(F)cc(F)c2)c2c(c1)cc1n2CCCNC1=O
Result block: 211

Query block: Please give the measured melting point for this compound: COc1ccc(-c2cc(C#N)cc3c(C)c4n(c23)CCCNC4=O)cc1
Result block: 277
